B1: glmS ribozyme (parent)
chain: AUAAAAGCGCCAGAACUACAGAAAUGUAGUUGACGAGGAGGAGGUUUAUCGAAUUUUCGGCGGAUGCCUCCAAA

variants of: B1; assay: self-cleavage kobs at 2500 uM GlcN6P; higher = faster cleavage; RNA array; conditions: with glucosamine-6-phosphate
Fewer inactive variants are shown than the library holds.
Readout: self-cleavage kobs at 2500 uM GlcN6P

Worked examples follow.
Query string: Report self-cleavage kobs at 2500 uM GlcN6P, nothing else, for this variant: G32C G41A U46G C71U
Result string: < 1e-05 s⁻¹

Query string: Report self-cleavage kobs at 2500 uM GlcN6P, nothing else, for this variant: G13U A14G U47C
Result string: 8e-05 s⁻¹

Query string: Report self-cleavage kobs at 2500 uM GlcN6P, nothing else, for this variant: A36C U45G U65C
Result string: < 1e-05 s⁻¹

Query string: Report self-cleavage kobs at 2500 uM GlcN6P, nothing else, for this variant: C8U G29C
Result string: < 1e-05 s⁻¹

Query string: Report self-cleavage kobs at 2500 uM GlcN6P, nothing else, for this variant: G29C A39C
Result string: 0.000212 s⁻¹

---
Query string: Report self-cleavage kobs at 2500 uM GlcN6P, nothing else, for this variant: A12U C34A A48U
Result string: < 1e-05 s⁻¹

Query string: Report self-cleavage kobs at 2500 uM GlcN6P, nothing else, for this variant: A33C A39G C70A
Result string: < 1e-05 s⁻¹

Query string: Report self-cleavage kobs at 2500 uM GlcN6P, nothing else, for this variant: G35C G59A
Result string: < 1e-05 s⁻¹

Query string: Report self-cleavage kobs at 2500 uM GlcN6P, nothing else, for this variant: A39C G51C U55A
Result string: < 1e-05 s⁻¹

Query string: Report self-cleavage kobs at 2500 uM GlcN6P, nothing else, for this variant: A39G U46A
Result string: 0.00325 s⁻¹

Query string: Report self-cleavage kobs at 2500 uM GlcN6P, nothing else, for this variant: G9U C16G
Result string: < 1e-05 s⁻¹

Query string: Report self-cleavage kobs at 2500 uM GlcN6P, nothing else, for this variant: A12U G41U C61U
Result string: < 1e-05 s⁻¹

Query string: Report self-cleavage kobs at 2500 uM GlcN6P, nothing else, for this variant: C10A G60C G63C C67A C68G C70G C71U
Result string: 4.85e-05 s⁻¹

Query string: Report self-cleavage kobs at 2500 uM GlcN6P, nothing else, for this variant: A36G A52C C68U
Result string: < 1e-05 s⁻¹

Query string: Report self-cleavage kobs at 2500 uM GlcN6P, nothing else, for this variant: U45C U46C
Result string: 0.00111 s⁻¹

Query string: Report self-cleavage kobs at 2500 uM GlcN6P, nothing else, for this variant: G35C G38C C58A
Result string: < 1e-05 s⁻¹

src = the supplement of paper PMC7125110
